- TARGET SYSTEM: CDK2 (Homo sapiens)
- Construct: endogenous in cells; host or cells: MDA-MB-231
- ASSAY: CDK protein degradation activity (Western blotting), CDK2
- Assay type: cell-based
- RECORDED CONDITIONS: MDA-MB-231 cells, 0.1 μM, 16 hours, Western blot
OUTCOME MEASURE: Enzyme degradation CDK2 (% remaining) @ 0.1 μM (%)

• O=C1CC[C@H](N2C(=O)c3ccc(N4CCN(CC=CCN5CCC6(CC5)CC(N5CCN(c7ccc(Nc8ncnc9c8ncn9C8CC(NC(=O)Cc9ccccc9)C8)cc7)CC5)C6)CC4)cc3C2=O)C(=O)N1 (some centres unmarked) [Compound 479] = 50
• O=C1CC[C@@H](c2cccc(OCC(=O)N3CCC(CC(=O)N4CCN(c5ccc(Nc6ncnc7c6ncn7[C@H]6C[C@@H](NC(=O)Cc7ccccc7)C6)cc5)CC4)CC3)c2)C(=O)N1 [Compound 227] = 50
• O=C1CCC(N2C(=O)c3ccc(N4CCC(CCN5CCN(c6ccc(Nc7ncnc8c7ncn8[C@H]7C[C@@H](NC(=O)Cc8ccccc8)C7)cc6)CC5)CC4)cc3C2=O)C(=O)N1 (some centres unmarked) [Compound 327] = 20
